The origin of these recorded values is ChEMBL document CHEMBL1138500.

# Test system: HL-60
# assay-summary: Cytotoxicity against human HL60 cells assessed as dead cells at 100 uM after 3 days by propidium iodide staining based flow cytometry
# Type: cell-based
# conditions-used: hl-60, 72 h
readout-type: Activity

compound	system	result
O=C1[C@@H](O)[C@H](O)[C@@H](O)CN1CCCCCCO	HL-60	3.44%
O=C1[C@@H](O)[C@H](O)[C@H](O)CN1Cc1ccccc1	HL-60	3.46%
CCCOCCCCCCN1C[C@@H](O)[C@@H](O)[C@H](O)C1=O	HL-60	4.33%
CCCCCCCCCCN1C[C@H](O)[C@@H](O)[C@H](O)C1=O	HL-60	11.2%
